Assay Procedure: Acute toxicity (LD50), mortality observed for 168 hours
Recorded Conditions: mouse, in vivo, ip; mice; mortality for 168 hours; Weil's method
LD50 at 168 h vs 200 mg/kg: less than gives 1; not less than gives 0.

INPUT: Just wondering, is LD50 at 168 h of "CCN(CC)Cc1ncc(-c2ccc(Cl)cc2)o1" below 200 mg/kg?
OUTPUT: 0

INPUT: Just wondering, is LD50 at 168 h of "OCCN1CCN(Cc2ncc(-c3ccc(Cl)c(Cl)c3)o2)CC1" below 200 mg/kg?
OUTPUT: 1

INPUT: Just wondering, is LD50 at 168 h of "NCc1ncc(-c2ccccc2Cl)o1" below 200 mg/kg?
OUTPUT: 0

INPUT: Just wondering, is LD50 at 168 h of "CNCc1ncc(-c2ccc(F)cc2)o1" below 200 mg/kg?
OUTPUT: 1

INPUT: Just wondering, is LD50 at 168 h of "OCCN1CCN(Cc2ncc(-c3ccccc3)o2)CC1" below 200 mg/kg?
OUTPUT: 0

INPUT: Just wondering, is LD50 at 168 h of "CCNCc1ncc(-c2ccc(Br)cc2)o1" below 200 mg/kg?
OUTPUT: 1

INPUT: Just wondering, is LD50 at 168 h of "CNCc1ncc(-c2cccc(Cl)c2)o1" below 200 mg/kg?
OUTPUT: 0

INPUT: Just wondering, is LD50 at 168 h of "OCCN1CCN(Cc2ncc(-c3ccc(F)cc3)o2)CC1" below 200 mg/kg?
OUTPUT: 0

INPUT: Just wondering, is LD50 at 168 h of "CCNCc1ncc(-c2ccc(Cl)c(Cl)c2)o1" below 200 mg/kg?
OUTPUT: 1

INPUT: Just wondering, is LD50 at 168 h of "CNCc1ncc(-c2ccccc2Cl)o1" below 200 mg/kg?
OUTPUT: 1

INPUT: Just wondering, is LD50 at 168 h of "CCCNCc1ncc(-c2cccc(Cl)c2)o1" below 200 mg/kg?
OUTPUT: 0

INPUT: Just wondering, is LD50 at 168 h of Cc1c(N(C)C)c(=O)n(-c2ccccc2)n1C [Aminopyrine, reference compound] below 200 mg/kg?
OUTPUT: 0
